# test summary: Effect of ultrasonification on crystallization, particle size by Aerosizer time-of-flight (2000 W, 20 kHz sonotrode)
# Type: physicochemical
# condition context: trial 6: ultrasound on at 50° C., off at 14° C.
parameter measured: Mean Particle Size (Number) (µm)
Give just the numeric value; µm need not be written.

stdin: Any idea what Mean Particle Size (Number) was measured for N[C@@H](Cc1cc(I)c(Oc2cc(I)c(O)c(I)c2)c(I)c1)C(=O)O ?
stdout: 2.4

* * *

# test summary: Effect of ultrasonification on crystallization, particle size by Aerosizer time-of-flight (2000 W, 20 kHz sonotrode)
# Type: physicochemical
# condition context: trial 4: ultrasound on at 50° C., off at 22° C.
parameter measured: Mean Particle Size (Number) (µm)
Give the quantity in µm, number only.

stdin: What value of measured Mean Particle Size (Number) is listed for N[C@@H](Cc1cc(I)c(Oc2cc(I)c(O)c(I)c2)c(I)c1)C(=O)O ?
stdout: 2.5

* * *

# test summary: Effect of ultrasonification on crystallization, particle size by Aerosizer time-of-flight (2000 W, 20 kHz sonotrode)
# Assay type: physicochemical
# condition context: trial 5: ultrasound on at 50° C., off at 18° C.
parameter measured: Mean Particle Size (Number) (µm)
Respond with the bare value in µm.

stdin: Report Mean Particle Size (Number) for N[C@@H](Cc1cc(I)c(Oc2cc(I)c(O)c(I)c2)c(I)c1)C(=O)O [L-thyroxine] please.
stdout: 2.4

* * *

# test summary: Effect of ultrasonification on crystallization, particle size by Aerosizer time-of-flight (2000 W, 20 kHz sonotrode)
# Assay type: physicochemical
# condition context: trial 7: ultrasound on at 50° C., off at 10° C.
parameter measured: Mean Particle Size Volume (µm)
Dear colleague, please return just the value in µm, with no unit written.

stdin: Please report the recorded Mean Particle Size Volume for N[C@@H](Cc1cc(I)c(Oc2cc(I)c(O)c(I)c2)c(I)c1)C(=O)O .
stdout: 6.1

* * *

# test summary: Effect of ultrasonification on crystallization, particle size by Aerosizer time-of-flight (2000 W, 20 kHz sonotrode)
# Format: physicochemical
# condition context: trial 3: ultrasound on at 50° C., off at 26° C.
parameter measured: Mean Particle Size (Number) (µm)
Numeric only. Scale: µm

stdin: Look at this compound and give its reported Mean Particle Size (Number). N[C@@H](Cc1cc(I)c(Oc2cc(I)c(O)c(I)c2)c(I)c1)C(=O)O
stdout: 2.3

* * *

# test summary: Effect of ultrasonification intensity on crystal size (one-liter flask in ultrasonic bath, ≈40 kHz)
# Assay type: physicochemical
# condition context: trial 2: 10% US; unit assumed
# Protocol: A one-liter round bottom glass flask was filled with the standard L-thyroxine solution and cooled under stirring. The flask was then immersed in an ultrasonic bath (Sonorex Super Bandelin DK102, ≈40 kHz) to study the influence of different sonification intensities on the size of L-thyroxine crystals. The frequency and power dissipated by the bath was measured using a hydrophone. As an additional parameter, the onset point of sonification and its duration was also varied.
parameter measured: C.V. Coefficient of variation = (X86 − X14)/(2 * X50) (%)
Please reply with the bare figure in % and do not write the unit itself.

stdin: Find the recorded C.V. Coefficient of variation = (X86 − X14)/(2 * X50) belonging to N[C@@H](Cc1cc(I)c(Oc2cc(I)c(O)c(I)c2)c(I)c1)C(=O)O [L-thyroxine] and report it.
stdout: 70

* * *

# test summary: Effect of ultrasonification on crystallization, particle size by Aerosizer time-of-flight (2000 W, 20 kHz sonotrode)
# Type: physicochemical
# condition context: trial 6: ultrasound on at 50° C., off at 14° C.
parameter measured: Mean Particle Size Volume

stdin: Give its Mean Particle Size Volume value. Item: N[C@@H](Cc1cc(I)c(Oc2cc(I)c(O)c(I)c2)c(I)c1)C(=O)O [L-thyroxine]
stdout: 5.2 µm

* * *

# test summary: Effect of ultrasonification intensity on crystal size (one-liter flask in ultrasonic bath, ≈40 kHz)
# Format: physicochemical
# condition context: trial 3: 10% US switched on at 32.5° C.; unit assumed
# Protocol: A one-liter round bottom glass flask was filled with the standard L-thyroxine solution and cooled under stirring. The flask was then immersed in an ultrasonic bath (Sonorex Super Bandelin DK102, ≈40 kHz) to study the influence of different sonification intensities on the size of L-thyroxine crystals. The frequency and power dissipated by the bath was measured using a hydrophone. As an additional parameter, the onset point of sonification and its duration was also varied.
parameter measured: C.V. Coefficient of variation = (X86 − X14)/(2 * X50) (%)
Output spec: scalar in %, unitless text.

stdin: Would you mind telling me what C.V. Coefficient of variation = (X86 − X14)/(2 * X50) value was observed for N[C@@H](Cc1cc(I)c(Oc2cc(I)c(O)c(I)c2)c(I)c1)C(=O)O [L-thyroxine] ?
stdout: 84

* * *

# test summary: Effect of ultrasonification on crystallization, particle size by Aerosizer time-of-flight (2000 W, 20 kHz sonotrode)
# Format: physicochemical
# condition context: trial 3: ultrasound on at 50° C., off at 26° C.
parameter measured: Mean Particle Size Volume (µm)
Form entry: value (µm) — number only.

stdin: # query: Mean Particle Size Volume of entry N[C@@H](Cc1cc(I)c(Oc2cc(I)c(O)c(I)c2)c(I)c1)C(=O)O
stdout: 5.4

* * *

# test summary: Effect of ultrasonification on crystallization, particle size by Aerosizer time-of-flight (2000 W, 20 kHz sonotrode)
# Assay type: physicochemical
# condition context: trial 7: ultrasound on at 50° C., off at 10° C.
parameter measured: Mean Particle Size (Number) (µm)
Express your answer in µm, writing the number without its unit.

stdin: Look up Mean Particle Size (Number): N[C@@H](Cc1cc(I)c(Oc2cc(I)c(O)c(I)c2)c(I)c1)C(=O)O
stdout: 3.1

* * *

# test summary: Effect of ultrasonification on crystallization, particle size by Aerosizer time-of-flight (2000 W, 20 kHz sonotrode)
# Assay type: physicochemical
# condition context: trial 2: ultrasound on at 50° C., off at 30° C.
parameter measured: Mean Particle Size (Number) (µm)
Reply numerically in µm, unit not repeated.

stdin: Given the molecule N[C@@H](Cc1cc(I)c(Oc2cc(I)c(O)c(I)c2)c(I)c1)C(=O)O , what is its reported Mean Particle Size (Number)?
stdout: 2.4
